Target: hNK1 (Homo sapiens, UniProt P25103)
Construct: expressed in transfected cells; host or cells: CHO
Sequence (P25103 whole entry): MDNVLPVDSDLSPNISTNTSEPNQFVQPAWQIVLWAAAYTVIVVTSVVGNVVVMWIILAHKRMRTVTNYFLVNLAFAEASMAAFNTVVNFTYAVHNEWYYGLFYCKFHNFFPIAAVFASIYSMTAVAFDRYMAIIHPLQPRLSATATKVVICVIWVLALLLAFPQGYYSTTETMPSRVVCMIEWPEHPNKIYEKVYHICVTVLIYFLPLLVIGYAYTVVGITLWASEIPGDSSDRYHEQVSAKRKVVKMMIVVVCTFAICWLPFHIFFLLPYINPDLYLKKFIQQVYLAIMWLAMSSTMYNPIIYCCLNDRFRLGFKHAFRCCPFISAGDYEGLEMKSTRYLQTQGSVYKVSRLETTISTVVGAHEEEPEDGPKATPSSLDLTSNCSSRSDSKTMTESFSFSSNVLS
Experiment: hNK1/CHO cell membrane radioligand binding assay ([3H]SP)
Conditions: Ki^hNK1 (nM), hNK1/CHO membranes, [3H]SP
Non-standard residues stand in square brackets, D forms with d. Residues, ends and D or L forms follow the SMILES beside them. *: point of attachment. NH(3,5-(CF3)2-benzyl) = FC(F)(F)c1cc(CN*)cc(C(F)(F)F)c1; NMePhe(4-F) = CN[C@@H](Cc1ccc(F)cc1)C(=O)O; Dmt = Cc1cc(O)cc(C)c1C[C@H](N)C(=O)O; NMeF = CN[C@@H](Cc1ccccc1)C(=O)O
reportedMetric: Ki (nM)

[[record]]
compound = "CC(C)C[C@H](NC(=O)[C@@H]1CCCN1C(=O)[C@H](CO)NC(=O)[C@H](Cc1ccc(F)cc1)N(C)C(=O)CNC(=O)[C@@H](C)NC(=O)[C@@H](N)Cc1ccc(O)cc1)C(=O)N[C@@H](Cc1c[nH]c2ccccc12)C(=O)NCc1cc(C(F)(F)F)cc(C(F)(F)F)c1 [AKG134] (H-Y[dA]G[NMePhe(4-F)]SPLW-{NH(3,5-(CF3)2-benzyl)})"
unitabbrev = "nM"
numericresult = 7.95

[[record]]
compound = "CC(C)C[C@H](NC(=O)[C@@H]1CCCN1C(=O)c1ccc(CNC(=O)[C@H](Cc2ccccc2)N(C)C(=O)CNC(=O)[C@@H](C)NC(=O)[C@@H](N)Cc2ccc(O)cc2)cc1)C(=O)N[C@@H](Cc1c[nH]c2ccccc12)C(=O)NCc1cc(C(F)(F)F)cc(C(F)(F)F)c1 [AKG125]"
unitabbrev = "nM"
numericresult = 2.3

[[record]]
compound = "Cc1cc(O)cc(C)c1C[C@H](N)C(=O)N[C@H](C)C(=O)NCC(=O)N(C)[C@@H](Cc1ccccc1)C(=O)N[C@@H](CCC(N)=O)C(=O)NCC(=O)N1CCC[C@H]1C(=O)N[C@@H](CC(C)C)C(=O)N[C@@H](Cc1c[nH]c2ccccc12)C(=O)NCc1cc(C(F)(F)F)cc(C(F)(F)F)c1 [AKG-SK-146] (H-[Dmt][dA]G[NMeF]QGPLW-{NH(3,5-(CF3)2-benzyl)}; N-terminus assumed)"
unitabbrev = "nM"
numericresult = 6.37

